Entry source: patent US20250152585A1

Reported pKd is given for each of the following compounds.
- Measured Target: N-terminally FLAG-tagged PARP2 (amino acids 1-583) (Homo sapiens)
- Construct: N-terminally FLAG-tagged PARP2 (amino acids 1-583)
- Sequence (Q9UGN5 whole entry, the tested form may be a part): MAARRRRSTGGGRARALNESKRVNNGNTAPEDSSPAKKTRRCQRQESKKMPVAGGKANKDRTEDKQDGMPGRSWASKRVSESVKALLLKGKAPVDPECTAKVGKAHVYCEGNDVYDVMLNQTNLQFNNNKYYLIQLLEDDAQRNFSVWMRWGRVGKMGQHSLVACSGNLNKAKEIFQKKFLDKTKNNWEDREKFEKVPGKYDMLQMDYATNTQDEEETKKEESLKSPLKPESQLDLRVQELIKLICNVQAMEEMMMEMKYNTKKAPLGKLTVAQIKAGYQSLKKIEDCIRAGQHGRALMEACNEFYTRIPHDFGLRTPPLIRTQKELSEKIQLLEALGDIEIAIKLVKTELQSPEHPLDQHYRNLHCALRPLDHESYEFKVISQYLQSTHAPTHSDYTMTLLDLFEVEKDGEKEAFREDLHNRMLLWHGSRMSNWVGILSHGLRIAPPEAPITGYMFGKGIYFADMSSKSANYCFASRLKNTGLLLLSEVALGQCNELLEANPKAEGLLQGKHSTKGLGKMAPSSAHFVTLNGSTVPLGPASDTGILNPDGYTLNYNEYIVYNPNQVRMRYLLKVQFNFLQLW
- Assay Explanation: PARP2 probe displacement HTRF assay
- Format: binding
- Condition Context: binned Kd, PARP2 probe displacement HTRF
pKd: −log10 of the molar value.

CNC(=O)c1ccc(N2CCC(N3CCC(c4nc5onc(C(F)(F)F)c5c(=O)[nH]4)C3)CC2)cn1 (racemic) [Compound 176rac]	< 5.00
CCc1ccc(C2CCCN(C3CCN(c4ccc(C(=O)NC)nc4)CC3)C2)[nH]c1=O (single isomer, unassigned) [Compound 53a]	5.00 to 6.00
CNC(=O)c1ccc(N2CCC(N3CCCC(c4nc5ccccc5c(=O)[nH]4)C3)CC2)nc1 (single isomer, unassigned) [Compound 83b]	< 5.00
N#Cc1ccc(N2CCC(N3CCCC(c4nc5ccccc5c(=O)[nH]4)C3)CC2)cc1 (single isomer, unassigned) [Compound 79a]	6.00 to 7.00
CNC(=O)c1ccc(N2CCC(N3CCCC(C)(c4nc5ccccc5c(=O)[nH]4)C3)CC2)cn1 (single isomer, unassigned) [Compound 66a]	< 5.00
O=c1[nH]c(C2CCCN(C3CCN(c4ccc(F)cc4F)CC3)C2)nc2ccccc12 (single isomer, unassigned) [Compound 113b]	< 5.00
CNC(=O)c1ccc(N2CCC(N3CCC(c4nc5ccccc5c(=O)[nH]4)C3)CC2)c(F)n1 (racemic) [Compound 157rac]	5.00 to 6.00
CNC(=O)c1ccc(OCCN2CCCC(Cc3nc4ccccc4c(=O)[nH]3)C2)cn1 (single isomer, unassigned) [Compound 14b]	< 5.00
CNC(=O)c1ccc(N2CCC(N3CCC(O)(c4nc5ccccc5c(=O)[nH]4)C3)CC2)cn1 (single isomer, unassigned) [Compound 140b]	5.00 to 6.00
CNC(=O)c1ccc(N2CCC(N3CC4(c5nc6ccccc6c(=O)[nH]5)CC3C4)CC2)cn1 [Compound 192]	5.00 to 6.00

Let us examine a further case.
input: Fill in the blank: the reported pKd of NC(=O)c1ccc(N2CCC(N3CCCC(c4nc5ccccc5c(=O)[nH]4)C3)CC2)cn1 (single isomer, unassigned) [Compound 109b] is ____.
output: 5.00 to 6.00

---

- Measured Target: full length N-terminally FLAG-tagged PARP1 (Homo sapiens, UniProt P09874)
- Sequence (P09874 whole entry): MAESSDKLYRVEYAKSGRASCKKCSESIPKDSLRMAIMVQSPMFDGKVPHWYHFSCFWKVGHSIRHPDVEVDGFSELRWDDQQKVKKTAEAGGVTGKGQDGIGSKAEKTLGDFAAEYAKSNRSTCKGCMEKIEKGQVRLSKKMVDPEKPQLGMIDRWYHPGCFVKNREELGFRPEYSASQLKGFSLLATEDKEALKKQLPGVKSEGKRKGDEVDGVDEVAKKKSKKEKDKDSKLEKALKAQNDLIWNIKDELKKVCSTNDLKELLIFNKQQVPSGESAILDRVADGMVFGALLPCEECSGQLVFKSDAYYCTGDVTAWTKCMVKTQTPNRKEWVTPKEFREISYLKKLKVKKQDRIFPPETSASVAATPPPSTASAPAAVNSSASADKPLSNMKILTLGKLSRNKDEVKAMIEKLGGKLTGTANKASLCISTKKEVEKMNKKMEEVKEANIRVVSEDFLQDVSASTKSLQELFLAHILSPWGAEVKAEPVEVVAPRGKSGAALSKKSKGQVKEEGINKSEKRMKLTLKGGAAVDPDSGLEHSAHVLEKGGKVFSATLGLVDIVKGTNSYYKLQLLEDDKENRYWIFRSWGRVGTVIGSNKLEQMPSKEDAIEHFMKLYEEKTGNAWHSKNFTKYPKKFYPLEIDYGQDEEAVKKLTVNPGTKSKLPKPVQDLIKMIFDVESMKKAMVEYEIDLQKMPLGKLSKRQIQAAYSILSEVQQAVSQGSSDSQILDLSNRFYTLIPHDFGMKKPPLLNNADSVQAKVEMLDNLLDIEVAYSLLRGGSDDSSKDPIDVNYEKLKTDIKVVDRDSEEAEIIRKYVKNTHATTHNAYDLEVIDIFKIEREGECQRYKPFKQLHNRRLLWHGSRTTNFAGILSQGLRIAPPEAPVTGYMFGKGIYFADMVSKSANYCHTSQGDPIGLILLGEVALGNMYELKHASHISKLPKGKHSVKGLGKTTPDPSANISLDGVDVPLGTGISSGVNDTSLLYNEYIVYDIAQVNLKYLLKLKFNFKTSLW
- Assay Explanation: PARP1 probe displacement HTRF assay
- Condition Context: read-out: PARP1 HTRF; binned Kd, PARP1 probe displacement HTRF
Measured Endpoint: Kd

Known results for molecules:
CNC(=O)c1ccc(N2CCC(N3CCC(c4nc5cc(Cl)ccc5c(=O)[nH]4)C3)CC2)cn1 (single isomer, unassigned) [Compound 87b]	< 10 nM
CNC(=O)c1ccc(N2CCC(N3CCCC(c4nc5ccccc5c(=O)[nH]4)C3)CC2)c(F)n1 (racemic)	< 10 nM
CNC(=O)c1ccc(N2CCC(N3CCC(c4nc5c(c(=O)[nH]4)CCCN5)C3)CC2)cn1 (single isomer, unassigned) [Compound 214a]	10 to 100 nM
CCc1ccc(C2CCN(C3CCN(c4ccc(C(=O)NCCF)nc4)CC3)C2)[nH]c1=O (single isomer, unassigned) [Compound 165b]	10 to 100 nM

Let us examine a further case.
input: Fill in the blank: the reported Kd of CNC(=O)c1ccc(N2CCC(N3CCCC(c4nc5c(c(=O)[nH]4)CCCC5)C3)CC2)cn1 (single isomer, unassigned) [Compound 146a] is ____.
output: 100 to 1000 nM

---

Reported pKd is given for each of the following compounds.
- Measured Target: full length N-terminally FLAG-tagged PARP1 (Homo sapiens)
- Assay Explanation: PARP1 probe displacement HTRF assay
- Condition Context: read-out: PARP1 HTRF; binned Kd, probe displacement HTRF
pKd: −log10 of the molar value.

CCc1ccc(C2CCN(C3CCN(c4ccc(C#N)cc4Cl)CC3)C2)[nH]c1=O (single isomer, unassigned) [Compound 377b]	> 8.00
CCCc1ccc(C2CCN(C3CCN(c4ccc(C(=O)NC)nc4)CC3)C2)[nH]c1=O (single isomer, unassigned) [Compound 261b]	> 8.00
CNC(=O)c1ccc(N2CCC(N3CCC(c4cc5cc(OC)ccc5c(=O)[nH]4)C3)CC2)cn1 (racemic)	7.00 to 8.00
CNC(=O)c1ccc(N2CCC(N3CCC(c4[nH]c(=O)c5ccccc5c4C(F)(F)F)C3)CC2)cn1 (single isomer, unassigned) [Compound 404b]	> 8.00
CCc1ccc(C2CCN(C3CCN(c4ccc(OC(F)F)nc4)CC3)C2)[nH]c1=O (single isomer, unassigned) [Compound 382b]	> 8.00
CC(=O)NC(=O)c1ccc(N2CCC(N3CCC(c4cc5ccccc5c(=O)[nH]4)C3)CC2)cn1 (single isomer, unassigned) [Compound 333a]	> 8.00
N#Cc1ccc(N2CCC(N3CCC(c4cc5cccc(F)c5c(=O)[nH]4)C3)CC2)cn1 (single isomer, unassigned) [Compound 316a]	> 8.00

Let us examine a further case.
input: Fill in the blank: the reported pKd of CCc1ccc(C2CCN(C3CCN(c4ccc(C(=O)NC)cc4)CC3)C2)[nH]c1=O (single isomer, unassigned) [Compound 355a] is ____.
output: 6.00 to 7.00

---

- Measured Target: N-terminally FLAG-tagged PARP2 (amino acids 1-583) (Homo sapiens)
- Construct: N-terminally FLAG-tagged PARP2 (amino acids 1-583)
- Assay Explanation: PARP2 probe displacement HTRF assay
- Format: binding
- Condition Context: binned Kd, PARP2 probe displacement HTRF
pKd: −log10 of the molar value.
Measured Endpoint: pKd

Known results for molecules:
CNC(=O)c1ccc(N2CCC(N3CCCC(c4nc5ccccc5c(=O)[nH]4)C3)CC2)c(C(F)(F)F)n1 (racemic) [Compound 138rac]	5.00 to 6.00
CCc1cnc(C2CCCN(CC3CCN(c4ccc(C(=O)NC)nc4)CC3)C2)[nH]c1=O (racemic) [Compound 39rac]	< 5.00
CNC(=O)c1ccc(N2CCC(CN3CCCC(c4nc5ccccc5c(=O)[nH]4)C3)CC2)cn1 (single isomer, unassigned) [Compound 9b]	6.00 to 7.00
CNC(=O)c1ccc(N2CCC(N3CCC(c4nc5c(F)cc(F)cc5c(=O)[nH]4)C3)CC2)cn1 (single isomer, unassigned) [Compound 181a]	6.00 to 7.00

input: Fill in the blank: the reported pKd of CNC(=O)c1ccc(N2CCC(N3CCC(c4nc5onc(C(F)(F)F)c5c(=O)[nH]4)C3)CC2)cn1 (single isomer, unassigned) [Compound 176b] is ____.
output: < 5.00

input: Fill in the blank: the reported pKd of O=C(NCCF)c1ccc(N2CCC(N3CCC(c4nc5ccccc5c(=O)[nH]4)C3)CC2)cn1 (single isomer, unassigned) [Compound 117a] is ____.
output: 6.00 to 7.00

input: Fill in the blank: the reported pKd of CNC(=O)c1ccc(N2CCC(N3CCC(C)(c4nc5ccccc5c(=O)[nH]4)C3)CC2)cn1 (single isomer, unassigned) [Compound 67b] is ____.
output: 5.00 to 6.00

input: Fill in the blank: the reported pKd of CNC(=O)c1ccc(N2CCC(N3CCCC(c4nc5onc(C)c5c(=O)[nH]4)C3)CC2)cn1 (single isomer, unassigned) [Compound 159a] is ____.
output: < 5.00

input: Fill in the blank: the reported pKd of CNC(=O)c1ccc(N2CCC(N3CCC(c4nc5c(c(C(F)(F)F)cn5C)c(=O)[nH]4)C3)CC2)cn1 (racemic) [Compound 170rac] is ____.
output: > 8.00

input: Fill in the blank: the reported pKd of CCc1ccc(C2CCN(CC3CCN(c4ccc(C(=O)NC)nc4)CC3)CC2)[nH]c1=O [Compound 47] is ____.
output: < 5.00

input: Fill in the blank: the reported pKd of CNC(=O)c1ccc(N2CCC(N3CCC(c4cc5c(F)ccc(F)c5c(=O)[nH]4)C3)CC2)cn1 (single isomer, unassigned) [Compound 180a] is ____.
output: 5.00 to 6.00

input: Fill in the blank: the reported pKd of CNC(=O)c1ccc(N2CC(N3CCC(c4nc5ccccc5c(=O)[nH]4)C3)C2)cn1 (single isomer, unassigned) [Compound 61a] is ____.
output: 5.00 to 6.00

input: Fill in the blank: the reported pKd of CCc1ccc(C2CCN(C3CCN(c4ccc(C(=O)NC)nc4Cl)CC3)C2)[nH]c1=O (racemic) [Compound 144rac] is ____.
output: 5.00 to 6.00

input: Fill in the blank: the reported pKd of CNC(=O)c1ccc(N2CCC(N3CCC(c4nc5cccnc5c(=O)[nH]4)C3)CC2)cn1 (single isomer, unassigned) [Compound 77b] is ____.
output: < 5.00

input: Fill in the blank: the reported pKd of CNC(=O)c1ccc(N2CCC(N3CCC(c4ccc(OC)c(=O)[nH]4)C3)CC2)cn1 (single isomer, unassigned) [Compound 148a] is ____.
output: < 5.00

input: Fill in the blank: the reported pKd of CNC(=O)c1ccc(N2CCC(N3CCCC(c4nc5cnccc5c(=O)[nH]4)C3)CC2)cn1 (single isomer, unassigned) [Compound 106b] is ____.
output: < 5.00

input: Fill in the blank: the reported pKd of CNC(=O)c1ccc(N2CCC(N3CCCC(c4nc5cccnc5c(=O)[nH]4)C3)CC2)cn1 (single isomer, unassigned) [Compound 89a] is ____.
output: < 5.00

input: Fill in the blank: the reported pKd of CNC(=O)c1ccc(N2CCC(N3CCC(c4cc5ccccc5c(=O)[nH]4)C3)CC2)cn1 (single isomer, unassigned) [Compound 91b] is ____.
output: 6.00 to 7.00

input: Fill in the blank: the reported pKd of CNC(=O)c1ccc(N2CCC(N3CCC(c4nc5cc(Cl)ccc5c(=O)[nH]4)C3)CC2)cn1 (single isomer, unassigned) [Compound 87a] is ____.
output: 5.00 to 6.00

input: Fill in the blank: the reported pKd of CNC(=O)c1ccc(N2CCC(N3CCC(c4nc5c(F)ccc(F)c5c(=O)[nH]4)C3)CC2)cn1 (single isomer, unassigned) [Compound 182b] is ____.
output: 6.00 to 7.00

input: Fill in the blank: the reported pKd of CNC(=O)c1ccc(N2CCC(N3CCC(c4nc5ccccc5c(=O)[nH]4)C3)CC2)c(C(F)(F)F)n1 (single isomer, unassigned) [Compound 139b] is ____.
output: 5.00 to 6.00
